Source of measurements: patent EP2874610B1

Assay: clinical
Conditions: both, human, in vivo, AUCinf
Experimental: A three layer tablet of gabapentin 375 mg and flurbiprofen 37.5 mg, prepared as described in example 4, was administered to 24 healthy male and female subjects, 18-55 years old, in fasting conditions and after a high fat meal in single dose according to a randomized cross-over design. […] Gabapentin and flurbiprofen plasma levels were determined by a validated HPLC/MS/MS analytical method at the following times: pre-dose, 0.5, 1, 1.5, 2, 3, 4, 5, 6, 7, 8, 10, 12, 16, 24 and 32 h post-dose.

{"COMPOUND": "CC(C(=O)O)c1ccc(-c2ccccc2)c(F)c1 (stereo not shown)", "AUC(0-inf) (ng·h/mL)": 35700}

====

assay: In vivo study: plasma levels after single dose of three layer tablet in fasting and fed conditions, randomized cross-over, HPLC/MS/MS; details: both, human, in vivo, AUCinf, Fed conditions (high fat meal); three layer tablet of example 4, single dose; arithmetic mean ± s.d., n=24
VALUE_TYPE: AUC(0-inf) (ng·h/mL)

{"SMILES_CODE": "NCC1(CC(=O)O)CCCCC1", "VALUE_TYPE": "AUC(0-inf)", "OBSERVED_RESULT": 39200}

====

Assay: In vivo study: plasma levels after single dose of three layer tablet in fasting and fed conditions, randomized cross-over, HPLC/MS/MS
Conditions: both, human, in vivo, Cmax, Fasting conditions; three layer tablet of example 4 (gabapentin 375 mg, flurbiprofen 37.5 mg), single dose; arithmetic mean ± s.d., n=24
Procedure: A three layer tablet of gabapentin 375 mg and flurbiprofen 37.5 mg, prepared as described in example 4, was administered to 24 healthy male and female subjects, 18-55 years old, in fasting conditions and after a high fat meal in single dose according to a randomized cross-over design. […] Gabapentin and flurbiprofen plasma levels were determined by a validated HPLC/MS/MS analytical method at the following times: pre-dose, 0.5, 1, 1.5, 2, 3, 4, 5, 6, 7, 8, 10, 12, 16, 24 and 32 h post-dose.

{"SMILES_CODE": "NCC1(CC(=O)O)CCCCC1", "Cmax": "2340 ng/mL"}

====

assay: In vivo study: plasma levels after single dose of three layer tablet in fasting and fed conditions, randomized cross-over, HPLC/MS/MS; settings: both, human, in vivo, Cmax, Fed conditions (high fat meal); three layer tablet of example 4, single dose; arithmetic mean ± s.d., n=24

{"MOLECULE": "NCC1(CC(=O)O)CCCCC1 [gabapentin]", "Cmax (ng/mL)": 3080}

====

experiment: clinical; settings: both, human, in vivo, Tmax
VALUE_TYPE: Tmax

{"COMPOUND": "CC(C(=O)O)c1ccc(-c2ccccc2)c(F)c1 (stereo not shown)", "VALUE_TYPE": "Tmax", "OBSERVED_RESULT": "12 h"}
